Entries and their measured EC50 (nM) at GLP-1 receptor follow.
- tested-target: GLP-1 receptor (UniProt P43220 24-463, limits assumed)
- assay-summary: cell-based or functional assay
Numbered stars: 1 amine (or outer) side, 2 acyl side, 3 side chain; on linkers, the order of the positions; unused ones are H or OH. Square brackets hold non-standard residues; d marks the D form. Side chains are listed from the residue outwards. Ends that are not written are not given here. * marks the point of attachment. 40K‑TE PEG = 40 kDa PEG covalently bound via thioether, formed by reaction of the free thiol of the peptide (Cys side chain) with an iodoacetic-functionalized PEG; 12K‑ME PEG = 12 kDa PEG bound via maleimido-thioether; γGlu = O=C(O)[C@H](CCC(=O)[*:2])N[*:1]; Palmitoyl = CCCCCCCCCCCCCCCC(=O)*; EC16 = not defined here; Aib = CC(C)(N)C(=O)O
Could you give me the number in nM? Just the number is fine.

>  <binder>
H[dS]QGTFTSDK([γGlu-Palmitoyl])SKYLDEQAAKEFIC(12K‑ME PEG)WLLDT-NH2 [peptide of SEQ ID NO: 43]

>  <units-of-measure>
nM

>  <measurement>
0.011

$$$$
>  <binder>
H[Aib]QGTFTSDYSKYLDEKRA[Aib]EFVC(40K‑TE PEG)WLLDT-NH2 [peptide of SEQ ID NO: 13]

>  <units-of-measure>
nM

>  <measurement>
0.067

$$$$
>  <binder>
H[dS]QGTFTSDK([γGlu-EC16])SKYLDERAAQDFVQWLLDGRG-NH2 (reading uncertain; also: printed as HsQGTFTSDK(gammaGlu-EC16)SKYLDERAAQDFVQWLLDGRG-amide) [peptide of SEQ ID NO: 19]

>  <units-of-measure>
nM

>  <measurement>
0.002

$$$$

In the following, a different binder is considered.
Req: EC50 (nM) at GLP-1 receptor for H[Aib]QGTFTSDYSKYLDEKRA[Aib]DFVC(40K‑TE PEG)WLLDT-NH2 [peptide of SEQ ID NO: 54] ?
Resp: 0.097
